For each entry below, report its Kd value.
# system under test: T1, EsCas13d, nuclease-dead (Eubacterium siraeum, UniProt B0MS50, R295A;H300A;R849A;H854A)
# T1 sequence: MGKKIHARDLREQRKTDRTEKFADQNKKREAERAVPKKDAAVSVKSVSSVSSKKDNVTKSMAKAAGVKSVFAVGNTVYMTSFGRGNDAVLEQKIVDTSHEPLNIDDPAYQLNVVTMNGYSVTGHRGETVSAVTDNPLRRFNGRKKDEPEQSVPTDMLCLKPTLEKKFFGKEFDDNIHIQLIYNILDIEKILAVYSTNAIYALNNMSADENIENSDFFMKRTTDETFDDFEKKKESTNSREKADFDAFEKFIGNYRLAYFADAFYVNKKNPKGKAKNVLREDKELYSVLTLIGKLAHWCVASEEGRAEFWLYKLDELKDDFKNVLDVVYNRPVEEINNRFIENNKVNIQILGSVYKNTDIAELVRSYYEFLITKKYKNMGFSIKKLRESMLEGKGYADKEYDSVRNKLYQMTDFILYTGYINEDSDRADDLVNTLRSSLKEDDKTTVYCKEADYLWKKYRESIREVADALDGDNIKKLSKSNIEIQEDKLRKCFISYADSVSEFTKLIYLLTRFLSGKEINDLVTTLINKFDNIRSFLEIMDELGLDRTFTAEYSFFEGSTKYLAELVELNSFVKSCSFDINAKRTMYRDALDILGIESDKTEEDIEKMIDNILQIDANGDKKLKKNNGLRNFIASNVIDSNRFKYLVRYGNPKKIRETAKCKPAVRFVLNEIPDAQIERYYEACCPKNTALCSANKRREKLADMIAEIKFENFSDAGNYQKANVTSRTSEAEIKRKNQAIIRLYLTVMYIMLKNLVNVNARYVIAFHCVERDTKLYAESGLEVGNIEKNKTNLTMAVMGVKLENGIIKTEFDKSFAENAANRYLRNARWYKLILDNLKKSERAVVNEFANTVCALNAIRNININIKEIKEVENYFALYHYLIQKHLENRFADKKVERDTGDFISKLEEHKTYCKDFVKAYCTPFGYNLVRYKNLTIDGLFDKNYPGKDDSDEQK
# experiment summary: crRNA (strand 1, pre-loaded); Mg2+; 40 mM Tris-HCl pH 7.5, 150 mM NaCl, 6 mM MgCl2, 1 mM DTT, 0.1% Tween-20, 0.2 mg/ml BSA; 25 C; 10 min per concentration, then washed
# assay setup: tags: His6-TwinStrep-SUMO cleaved; N-terminal SNAP kept (SNAP-Surface 488); label: 3' end held by stalled T7 RNA polymerase

Solved entries (count: 3):
target 2 MT 5'PFS GGU 3'PFS UAC (mixed) RNA 1: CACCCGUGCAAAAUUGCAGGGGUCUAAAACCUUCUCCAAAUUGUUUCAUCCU RNA 2: GGGAAUGGAUCCACAUCUACGAAUUCGGUAGGAUGAAACAAUUUGGAGAAGUACAGAUCGGAAGAGCACACGU :: 0.0159 µM
target 2 MT 5'PFS ACU 3'PFS CAA (mixed) RNA 1: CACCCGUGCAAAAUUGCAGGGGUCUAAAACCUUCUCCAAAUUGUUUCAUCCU RNA 2: GGGAAUGGAUCCACAUCUACGAAUUCACUAGGAUGAAACAAUUUGGAGAAGCAAAGAUCGGAAGAGCACACGU :: 0.0037 µM
target 1 C4G,C6A (mixed) RNA 1: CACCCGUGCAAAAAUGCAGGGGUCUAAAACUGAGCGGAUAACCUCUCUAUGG RNA 2: GGGAAUGGAUCCACAUCUACGAAUUCGUACCAUAGAGAGGUUAUCAGGUCACCGAGAUCGGAAGAGCACACGU :: 0.0067 µM

Then there is this binder:
Kd for target 1 insU 3' of 20,insC 3' of 19 (mixed) RNA 1: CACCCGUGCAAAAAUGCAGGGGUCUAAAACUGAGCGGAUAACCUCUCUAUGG RNA 2: GGGAAUGGAUCCACAUCUACGAAUUCGUACCAUUCAGAGAGGUUAUCCGCUCACCGAGAUCGGAAGAGCACACGU ? 0.05 µM

Reference source: paper PMC10786891
